Sourced from patent US20260193366A1

- measured on: T1, hIL-4Rα on cells (human, UniProt P24394 26-825)
- T1 sequence: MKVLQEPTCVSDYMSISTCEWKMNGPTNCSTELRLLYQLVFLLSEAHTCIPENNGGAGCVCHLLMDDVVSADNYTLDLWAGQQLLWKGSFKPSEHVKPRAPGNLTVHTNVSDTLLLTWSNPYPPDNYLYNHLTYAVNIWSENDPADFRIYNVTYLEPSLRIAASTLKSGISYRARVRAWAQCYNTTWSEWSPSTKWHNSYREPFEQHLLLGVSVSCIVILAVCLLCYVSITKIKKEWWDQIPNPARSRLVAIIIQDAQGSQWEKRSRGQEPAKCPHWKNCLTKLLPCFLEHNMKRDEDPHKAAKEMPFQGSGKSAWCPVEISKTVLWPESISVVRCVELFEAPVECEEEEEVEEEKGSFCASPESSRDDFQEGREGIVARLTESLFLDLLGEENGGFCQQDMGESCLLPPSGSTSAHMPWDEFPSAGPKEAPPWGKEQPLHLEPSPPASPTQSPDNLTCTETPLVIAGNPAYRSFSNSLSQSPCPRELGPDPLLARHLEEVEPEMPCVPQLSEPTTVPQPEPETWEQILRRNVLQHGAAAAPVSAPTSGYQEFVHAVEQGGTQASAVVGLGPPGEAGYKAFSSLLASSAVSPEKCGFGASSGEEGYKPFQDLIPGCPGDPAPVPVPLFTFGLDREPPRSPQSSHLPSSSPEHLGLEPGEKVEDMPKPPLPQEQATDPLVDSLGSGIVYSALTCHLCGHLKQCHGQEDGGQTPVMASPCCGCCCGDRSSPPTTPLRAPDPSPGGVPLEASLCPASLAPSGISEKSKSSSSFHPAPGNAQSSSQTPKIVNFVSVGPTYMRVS
- procedure summary: FACS on HEK293 cells, competitor biotin-hIL-13;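 note: stably transduced cells co-expressing both receptor chains, stained cold, with cell-bound signal read as mean fluorescence intensity by flow cytometry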
Listing: Relative Blockade of IL-13 Binding IC50 of selected binders

Worked examples follow.
**Q:** Please report the measured Relative Blockade of IL-13 Binding IC50 for Construct 6 (mAb415) (antibody, IgG4, V domains shown, VH/VL only) VH: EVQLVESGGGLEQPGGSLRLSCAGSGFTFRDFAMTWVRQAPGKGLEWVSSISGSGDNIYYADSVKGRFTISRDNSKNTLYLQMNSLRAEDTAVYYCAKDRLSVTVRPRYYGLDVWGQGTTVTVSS VL: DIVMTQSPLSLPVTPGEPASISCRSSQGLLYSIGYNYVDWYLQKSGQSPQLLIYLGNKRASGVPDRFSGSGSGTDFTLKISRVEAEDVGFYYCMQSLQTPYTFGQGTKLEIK
**A:** 0.99 relative to dupilumab

**Q:** Please report the measured Relative Blockade of IL-13 Binding IC50 for Construct 5 (mAb414) (antibody, IgG4, V domains shown, VH/VL only) VH: EVQLVESGGGLEQPGGSLRLSCAGSGFTFRDFAMTWVRQAPGKGLEWVSSISGSGDNIYYADSVKGRFTISRDNSKNTLYLQMNSLRAEDTAVYYCAKDRVSITIRPRYYGLDVWGQGTTVTVSS VL: DIVMTQSPLSLPVTPGEPASISCRSSQSLLYSIGKNYVDWYLQKSGQSPQLLIYLGNKRASGVPDRFSGSGSGTDFTLKISRVEAEDVGFYYCMQSLQTPYVFGQGTKLEIK
**A:** 1 relative to dupilumab

**Q:** Please report the measured Relative Blockade of IL-13 Binding IC50 for Construct 39 (mAb473) (antibody, IgG4, V domains shown, VH/VL only) VH: EVQLVESGGGLEQPGGSLRLSCAGSGFTFRDSAMTWVRQAPGKGLEWVSSISGSGDNTYYADSVKGRFTISRDNSKNTLYLQMNSLRAEDTAVYYCAKDRLSITVRPRYYGLDVWGQGTTVTVSS VL: DIVMTQSPLSLPVTPGEPASISCRSSQSLLYSIGKNYVDWYLQKSGQSPQLLIYLGNKRASGVPDRFSGSGSGTDFTLKISRVEAEDVGFYYCMQALGSPYTFGQGTKLEIK
**A:** 1.05 relative to dupilumab

**Q:** Please report the measured Relative Blockade of IL-13 Binding IC50 for Construct 16 (mAb424) (antibody, IgG4, V domains shown, VH/VL only) VH: EVQLVESGGGLEQPGGSLRLSCAGSGFTFRTYAMTWVRQAPGKGLEWVSSISGSGDNIYYADSVKGRFTISRDNSKNTLYLQMNSLRAEDTAVYYCAKDRLSVTIRPRYYGLDVWGQGTTVTVSS VL: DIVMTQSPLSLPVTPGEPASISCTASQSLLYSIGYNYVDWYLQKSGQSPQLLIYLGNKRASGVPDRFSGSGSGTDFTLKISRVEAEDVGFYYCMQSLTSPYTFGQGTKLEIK
**A:** 0.904 relative to dupilumab

**Q:** Please report the measured Relative Blockade of IL-13 Binding IC50 for Construct 3 (mAb412) (antibody, IgG4, V domains shown, VH/VL only) VH: EVQLVESGGGLEQPGGSLRLSCAGSGFTFRDFAMTWVRQAPGKGLEWVSSISGSGSSTYYADSVKGRFTISRDNSKNTLYLQMNSLRAEDTAVYYCAKDRLSITVRPRYYGLDVWGQGTTVTVSS VL: DIVMTQSPLSLPVTPGEPASISCRSSQSLLYSIGYNYVDWYLQKSGQSPQLLIYLGNKRASGVPDRFSGSGSGTDFTLKISRVEAEDVGFYYCMQALTTPYTFGQGTKLEIK
**A:** 0.949 relative to dupilumab

Continuing:
**Q:** Please report the measured Relative Blockade of IL-13 Binding IC50 for Construct 28 (mAb436) (antibody, IgG4, V domains shown, VH/VL only) VH: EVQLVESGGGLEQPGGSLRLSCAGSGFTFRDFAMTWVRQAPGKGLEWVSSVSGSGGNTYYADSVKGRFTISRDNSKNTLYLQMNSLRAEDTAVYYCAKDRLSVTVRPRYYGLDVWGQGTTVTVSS VL: DIVMTQSPLSLPVTPGEPASISCTSSQSLLYSIGYNYVDWYLQKSGQSPQLLIYLGNKRASGVPDRFSGSGSGTDFTLKISRVEAEDVGFYYCMQSLQTPYTFGQGTKLEIK
**A:** 0.611 relative to dupilumab

**Q:** Please report the measured Relative Blockade of IL-13 Binding IC50 for Construct 36 (mAb469) (antibody, IgG4, V domains shown, VH/VL only) VH: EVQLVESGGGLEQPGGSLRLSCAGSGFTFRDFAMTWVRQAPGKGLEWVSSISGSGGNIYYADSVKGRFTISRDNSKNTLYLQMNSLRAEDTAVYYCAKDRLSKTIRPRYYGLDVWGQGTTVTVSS VL: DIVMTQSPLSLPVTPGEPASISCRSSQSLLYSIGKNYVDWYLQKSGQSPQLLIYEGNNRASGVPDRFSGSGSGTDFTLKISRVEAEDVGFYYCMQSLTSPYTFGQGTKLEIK
**A:** 1.22 relative to dupilumab

**Q:** Please report the measured Relative Blockade of IL-13 Binding IC50 for Construct 46 (mAb501) (antibody, IgG4, V domains shown, VH/VL only) VH: EVQLVESGGGLEQPGGSLRLSCAGSGFTFRDSAMTWVRQAPGKGLEWVSSISGSGDGTYYADSVKGRFTISRDNSKNTLYLQMNSLRAEDTAVYYCAKDRLSIYIRPRYYGLDVWGQGTTVTVSS VL: DIVMTQSPLSLPVTPGEPASISCTSSQSLLYSIGYNYVDWYLQKSGQSPQLLIYLGNKRASGVPDRFSGSGSGTDFTLKISRVEAEDVGFYYCMQALQTPYTFGQGTKLEIK
**A:** 1.02 relative to dupilumab

**Q:** Please report the measured Relative Blockade of IL-13 Binding IC50 for Construct 23 (mAb431) (antibody, V domains shown, VH/VL only) VH: EVQLVESGGGLEQPGGSLRLSCAGSGFTFRDFAMTWVRQAPGKGLEWVSSISGGGGSTYYADSVKGRFTISRDNSKNTLYLQMNSLRAEDTAVYYCAKDRLSVTVRPRYYGLDVWGQGTTVTVSS VL: DIVMTQSPLSLPVTPGEPASISCRSSQSVLYSIGKNYVDWYLQKSGQSPQLLIYLGSQRATGVPDRFSGSGSGTDFTLKISRVEAEDVGFYYCMQSLTSPYTFGQGTKLEIK
**A:** 0.793 relative to dupilumab

**Q:** Please report the measured Relative Blockade of IL-13 Binding IC50 for Construct 17 (mAb425) (antibody, IgG4, V domains shown, VH/VL only) VH: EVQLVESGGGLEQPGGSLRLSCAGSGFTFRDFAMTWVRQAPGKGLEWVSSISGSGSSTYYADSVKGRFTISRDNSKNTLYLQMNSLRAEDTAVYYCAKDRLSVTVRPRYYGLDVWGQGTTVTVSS VL: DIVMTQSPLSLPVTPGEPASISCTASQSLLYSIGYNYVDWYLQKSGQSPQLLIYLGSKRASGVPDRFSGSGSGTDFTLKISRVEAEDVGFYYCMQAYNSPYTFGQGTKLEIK
**A:** 1.17 relative to dupilumab
